Below are ΔTm values recorded for 3-phosphoinositide-dependent protein kinase 1 (Homo sapiens).

molecule: CC(C)(C)n1nc(-c2cccc3ccccc23)c2c(N)ncnc21
study.target: 3-phosphoinositide-dependent protein kinase 1 (Homo sapiens)
readout.label: ΔTm
measured.result: -0.4 °C

molecule: COc1cccc(-c2cc(=O)c3ccccc3o2)c1N
study.target: 3-phosphoinositide-dependent protein kinase 1 (Homo sapiens)
readout.label: ΔTm
measured.result: -0.2 °C

molecule: O=C1c2ccccc2-c2n[nH]c3cccc1c23
study.target: 3-phosphoinositide-dependent protein kinase 1 (Homo sapiens)
readout.label: ΔTm
measured.result: -0.1 °C

molecule: N#CC(C#N)=Cc1ccc(O)c(O)c1 [TYRPHOSTIN 23]
study.target: 3-phosphoinositide-dependent protein kinase 1 (Homo sapiens)
readout.label: ΔTm
measured.result: 0.2 °C

Now look at this entry.
Qu. Reported ΔTm for 3-phosphoinositide-dependent protein kinase 1 (Homo sapiens), given O=C1Nc2ccc(I)cc2/C1=C\c1cc(Br)c(O)c(Br)c1 ?
Ans. -1 °C

###

Molecular target: Mitogen-activated protein kinase 11 (Homo sapiens, UniProt Q15759)
Sequence (Q15759 whole entry): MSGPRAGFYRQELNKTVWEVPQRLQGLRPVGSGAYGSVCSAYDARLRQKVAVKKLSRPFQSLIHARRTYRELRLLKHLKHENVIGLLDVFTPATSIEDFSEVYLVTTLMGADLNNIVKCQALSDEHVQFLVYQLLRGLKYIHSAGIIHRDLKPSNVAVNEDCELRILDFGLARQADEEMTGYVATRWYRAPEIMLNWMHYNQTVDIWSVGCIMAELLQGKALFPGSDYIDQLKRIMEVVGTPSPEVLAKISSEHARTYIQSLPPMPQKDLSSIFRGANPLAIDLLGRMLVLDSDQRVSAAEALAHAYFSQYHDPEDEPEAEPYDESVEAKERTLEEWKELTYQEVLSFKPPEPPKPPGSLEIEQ
Ranges used to classify ΔTm: lo (below -0.1 °C), mid (-0.1 °C to below 0.7 °C), hi (0.7 °C or more)

Some solved entries appear below for comparison.
compound: CCOC(=O)c1cnc2oc3ccc(O)cc3c2c1-c1ccccc1
assigned.category: lo
--
compound: COc1cc2ncnc(Nc3ccc(NC(=O)c4ccccc4)cc3)c2cc1OC
assigned.category: mid
--
compound: N#CCCc1ccc2c(c1)-c1[nH]c3ccc([N+](=O)[O-])cc3c1CC(=O)N2
assigned.category: mid
--
compound: C[S+]([O-])c1ccc(-c2nc(-c3ccc(F)cc3)c(-c3ccncc3)[nH]2)cc1 (stereo not drawn)
assigned.category: hi
--
compound: Brc1c(Br)c(Br)c2[nH]nnc2c1Br
assigned.category: hi
--
compound: O=c1c(O)c(-c2ccc(O)c(O)c2)oc2cc(O)cc(O)c12
assigned.category: hi
--
compound: O=C(O)c1cc(N(Cc2ccccc2O)Cc2cc(O)ccc2O)ccc1O
assigned.category: mid
--
compound: O=c1ccc2ccc(O)c(O)c2o1
assigned.category: lo

Consider now this further compound.
Qu. Which class holds O=c1c(-c2ccc(O)cc2)coc2cc(O)cc(O)c12 ?
Ans. mid

###

Biological target: Serine/threonine-protein kinase OSR1 (Homo sapiens) (UniProt O95747)
Sequence (O95747 2-527 limits assumed): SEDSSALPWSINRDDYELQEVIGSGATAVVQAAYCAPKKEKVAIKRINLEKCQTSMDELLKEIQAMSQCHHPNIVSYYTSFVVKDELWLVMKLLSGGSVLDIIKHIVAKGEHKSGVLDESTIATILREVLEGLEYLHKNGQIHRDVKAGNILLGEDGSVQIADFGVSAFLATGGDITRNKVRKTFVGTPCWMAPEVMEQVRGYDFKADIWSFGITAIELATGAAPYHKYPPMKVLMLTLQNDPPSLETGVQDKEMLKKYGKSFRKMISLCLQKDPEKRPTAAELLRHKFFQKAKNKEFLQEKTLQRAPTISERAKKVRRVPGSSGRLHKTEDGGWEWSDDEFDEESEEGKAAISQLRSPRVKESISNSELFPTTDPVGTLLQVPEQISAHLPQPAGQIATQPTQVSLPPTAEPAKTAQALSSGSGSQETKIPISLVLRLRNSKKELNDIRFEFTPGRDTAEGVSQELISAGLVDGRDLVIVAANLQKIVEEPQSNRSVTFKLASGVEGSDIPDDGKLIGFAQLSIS
readout.label: ΔTm

Here are 3 molecules together with their reported answers.
molecule: O=C(O)c1cc(N(Cc2ccccc2O)Cc2cc(O)ccc2O)ccc1O
study.target: Serine/threonine-protein kinase OSR1 (Homo sapiens) (UniProt O95747)
measured.result: -0.1 °C

molecule: Cc1nc(Nc2ncc(C(=O)Nc3c(C)cccc3Cl)s2)cc(N2CCN(CCO)CC2)n1
study.target: Serine/threonine-protein kinase OSR1 (Homo sapiens) (UniProt O95747)
measured.result: 0.4 °C

molecule: O=C1Nc2ccccc2/C1=C/c1cnc[nH]1
study.target: Serine/threonine-protein kinase OSR1 (Homo sapiens) (UniProt O95747)
measured.result: 2.4 °C

Qu. // query ΔTm value for entry O=[N+]([O-])c1ccc(-c2nc(-c3ccc(F)cc3)c(-c3ccncc3)[nH]2)cc1
Ans. -0.3 °C

Qu. // query ΔTm value for entry O=C1Nc2cc(Br)ccc2/C1=C1/Nc2ccccc2/C1=N\O
Ans. 0.6 °C

Qu. // query ΔTm value for entry COc1cc2ncnc(Nc3ccc(NC(=O)c4ccccc4)cc3)c2cc1OC
Ans. 0.3 °C
